Measured kcat by item
target system: Factor X (FX), P00742
Sequence (P00742 whole entry, looked up): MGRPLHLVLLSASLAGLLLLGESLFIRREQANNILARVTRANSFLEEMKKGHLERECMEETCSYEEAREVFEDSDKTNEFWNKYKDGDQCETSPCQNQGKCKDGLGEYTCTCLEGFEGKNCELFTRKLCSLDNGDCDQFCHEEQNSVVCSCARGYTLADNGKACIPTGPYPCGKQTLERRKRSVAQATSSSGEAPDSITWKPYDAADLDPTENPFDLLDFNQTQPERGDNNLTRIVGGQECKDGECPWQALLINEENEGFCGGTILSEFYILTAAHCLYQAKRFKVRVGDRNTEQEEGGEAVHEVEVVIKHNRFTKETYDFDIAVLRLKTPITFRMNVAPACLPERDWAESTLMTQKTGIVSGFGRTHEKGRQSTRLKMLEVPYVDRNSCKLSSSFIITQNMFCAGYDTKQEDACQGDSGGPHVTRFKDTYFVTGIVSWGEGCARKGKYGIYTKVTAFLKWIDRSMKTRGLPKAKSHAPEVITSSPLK
State just the number; it will be interpreted in s⁻¹.

FIXa variant K247N/N249S/R318Y/R338E/E410N (protein) chain 1: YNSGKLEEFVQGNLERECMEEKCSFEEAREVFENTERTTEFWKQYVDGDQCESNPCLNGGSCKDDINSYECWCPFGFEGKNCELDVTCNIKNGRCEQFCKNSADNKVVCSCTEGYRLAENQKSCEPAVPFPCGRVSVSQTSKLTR chain 2: VVGGEDAKPGQFPWQVVLNGKVDAFCGGSIVNEKWIVTAAHCVETGVKITVVAGEHNIEETEHTEQNRSVIRIIPHHNYNAAINKYNHDIALLELDEPLVLNSYVTPICIADKEYTNIFLKFGSGYVSGWGRVFHKGYSALVLQYLRVPLVDRATCLESTKFTIYNNMFCAGFHEGGRDSCQGDSGGPHVTEVEGTSFLTGIISWGEECAMKGKYGIYTKVSRYVNWIKNKTKLT = 3.8

Given the protein FIXa-D104N/K106S/K228N/K247N/N249S (protein) chain 1: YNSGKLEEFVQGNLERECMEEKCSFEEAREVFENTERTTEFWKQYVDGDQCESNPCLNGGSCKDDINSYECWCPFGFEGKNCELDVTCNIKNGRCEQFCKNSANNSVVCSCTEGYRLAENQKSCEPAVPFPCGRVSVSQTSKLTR chain 2: VVGGEDAKPGQFPWQVVLNGKVDAFCGGSIVNEKWIVTAAHCVETGVNITVVAGEHNIEETEHTEQNRSVIRIIPHHNYNAAINKYNHDIALLELDEPLVLNSYVTPICIADKEYTNIFLKFGSGYVSGWGRVFHKGRSALVLQYLRVPLVDRATCLRSTKFTIYNNMFCAGFHEGGRDSCQGDSGGPHVTEVEGTSFLTGIISWGEECAMKGKYGIYTKVSRYVNWIKEKTKLT , write its reported kcat.
1.7
